Where a name gives a salt, the structure may show the parent alone.
Criterion: melting point meeting or surpassing 200 °C. Met: T. Not met: F.

molecule="Cc1cc2ccc(CN3CCC(c4ccccc4)CC3)cc2[nH]c1=O [Compound 7]" class_label=T
molecule="Cc1cc2ccc(C(C)N3CCN(c4ccccc4C#N)CC3)cc2[nH]c1=O (centres unmarked) [Compound 20]" class_label=F
molecule="CCc1cc2ccc(CCCN3CCN(c4ccc(C#N)cn4)CC3)cc2[nH]c1=O (as salt: HCl) [Compound 8]" class_label=F
molecule="Cc1cc2ccc(C(C)N3CCCC3)cc2[nH]c1=O (centres unmarked) [Compound 68]" class_label=F

Please check the record CCc1cc2ccc(CNC3CCN(c4ncccn4)CC3)cc2[nH]c1=O [Compound 15] and state if its melting point is at or above 200 °C.
F
